- target-under-test: Nuclear receptor subfamily 5 group A member 2 (Homo sapiens) (UniProt O00482)
- Sequence (O00482 whole entry, looked up): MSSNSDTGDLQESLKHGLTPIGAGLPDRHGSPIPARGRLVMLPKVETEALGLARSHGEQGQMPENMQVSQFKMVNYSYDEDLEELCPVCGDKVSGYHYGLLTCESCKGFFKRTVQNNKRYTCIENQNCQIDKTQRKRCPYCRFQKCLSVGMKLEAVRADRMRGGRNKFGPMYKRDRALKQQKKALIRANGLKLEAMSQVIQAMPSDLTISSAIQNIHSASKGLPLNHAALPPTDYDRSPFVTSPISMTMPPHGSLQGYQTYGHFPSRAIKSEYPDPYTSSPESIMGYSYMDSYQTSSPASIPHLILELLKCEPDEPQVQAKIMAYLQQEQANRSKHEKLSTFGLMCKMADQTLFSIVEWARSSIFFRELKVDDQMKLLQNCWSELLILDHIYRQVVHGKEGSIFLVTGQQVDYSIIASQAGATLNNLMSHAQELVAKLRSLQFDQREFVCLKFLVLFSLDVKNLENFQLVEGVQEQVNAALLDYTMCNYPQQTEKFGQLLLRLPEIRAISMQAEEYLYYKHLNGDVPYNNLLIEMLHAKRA
- experimental-protocol: LRH-1 (NR5A2) inverse agonists, retest, confirmation, cell-based, luminescence (AID 651613);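 note: HEK293T cells co-transfected with LRH-1 and StAR promoter luciferase reporter; 0% = vehicle wells and 100% = parental cells lacking receptor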
- protocol-conditions: cell-based LRH-1 luciferase reporter, inverse agonism; at 3.6 µM
Activity calls are given as the source filed them. Cut-off read from the data, not from the text of the source: active = inhibition above about 42%; inactive = the rest.
Entry note: the call must match one of active, inactive

Below, 2 compounds whose answers are already recorded.
{"columns": ["compound", "class-assignment"],
 "data": [
  ["Cc1ccc2nc(-c3ccc(NS(C)(=O)=O)cc3)cc(-c3ccccc3)c2c1", "active"],
  ["CC(=O)N1c2ccc(S(=O)(=O)N3CCC(C(=O)Nc4cccc(C)n4)CC3)cc2CC1C (configuration not stated)", "active"]
]}

Input: Write down the call the test reported for this compound. Item: "CCCn1c(=NC(=O)CCS(=O)(=O)c2ccccc2)sc2cc(S(N)(=O)=O)ccc21"
Output: inactive

Input: Write down the call the test reported for this compound. Item: CCC(C)n1c(SCC(=O)NCCc2ccc(S(N)(=O)=O)cc2)nc2ccsc2c1=O (configuration not stated)
Output: active

Input: Write down the call the test reported for this compound. Item: "CCOc1cc(/C=C2\C(=N)N3N=C(C)SC3=NC2=O)ccc1OCCOc1cccc(OC)c1"
Output: inactive

Input: Write down the call the test reported for this compound. Item: "COc1cccc2c1C(=O)c1c(O)c3c(c(O)c1C2=O)C[C@](O)(C(C)=O)C[C@H]3O[C@@H]1C[C@@H](N)[C@@H](O)[C@@H](C)O1"
Output: active

Input: Write down the call the test reported for this compound. Item: "COc1ccc(CCNc2ncnc3c2oc2ccccc23)cc1OC"
Output: active

Input: Write down the call the test reported for this compound. Item: "COc1cc(C(=O)Nc2ccccc2N2CCN(S(C)(=O)=O)CC2)cc(OC)c1OC"
Output: active

Input: Write down the call the test reported for this compound. Item: "COc1ccccc1-n1cc([C@@H]2C[C@H]3CN(c4ccccc4)C(=O)[C@]34CCCN24)cn1"
Output: active

Input: Write down the call the test reported for this compound. Item: "COCCSc1ccccc1C(=O)NCc1ccc2c(c1)OCO2"
Output: inactive

Input: Write down the call the test reported for this compound. Item: CC1CC(=Cc2ccc(N)cc2)C(=O)O1 (configuration not stated)
Output: active

Input: Write down the call the test reported for this compound. Item: Cc1cc(C(=O)NC2CCCc3c2cnn3-c2ccc(C)c(C)c2)n(C)n1 (configuration not stated)
Output: active

Input: Write down the call the test reported for this compound. Item: CCCCC(=O)NC(c1ccc(OC)cc1)c1ccc2cccnc2c1O (configuration not stated)
Output: inactive

Input: Write down the call the test reported for this compound. Item: CC(C)CC1(C)NC(=O)N(CC(=O)Nc2ccc3c(c2)OCCO3)C1=O (configuration not stated)
Output: active

Input: Write down the call the test reported for this compound. Item: "CN(CCC#N)Cc1cc(=O)oc2ccc3ccccc3c12"
Output: active

Input: Write down the call the test reported for this compound. Item: "COc1ccc(-c2cc3nc(-c4ccccc4)cc(N4CCN(C(C)=O)CC4)n3n2)cc1"
Output: inactive

Input: Write down the call the test reported for this compound. Item: "N#Cc1c(NC(=O)CSc2ncn[nH]2)sc2c1CCCCC2"
Output: active

----------
- target-under-test: Steroidogenic factor 1 (Homo sapiens) (UniProt Q13285)
- Sequence (Q13285 whole entry, looked up): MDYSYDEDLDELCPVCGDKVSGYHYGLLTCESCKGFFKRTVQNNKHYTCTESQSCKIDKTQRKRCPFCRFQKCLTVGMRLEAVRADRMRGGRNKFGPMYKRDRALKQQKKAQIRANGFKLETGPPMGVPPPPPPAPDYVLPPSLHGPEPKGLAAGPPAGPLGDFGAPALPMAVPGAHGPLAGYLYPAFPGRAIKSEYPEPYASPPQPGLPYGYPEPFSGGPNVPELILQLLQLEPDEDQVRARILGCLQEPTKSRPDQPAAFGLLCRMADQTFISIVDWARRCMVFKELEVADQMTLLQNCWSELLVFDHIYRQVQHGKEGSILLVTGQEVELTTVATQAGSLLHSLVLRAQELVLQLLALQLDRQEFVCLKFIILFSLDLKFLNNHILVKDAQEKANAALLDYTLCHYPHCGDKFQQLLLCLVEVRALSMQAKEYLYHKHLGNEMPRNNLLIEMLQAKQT
- experimental-protocol: SF1 (NR5A1) inverse agonists, counter-screen for LRH-1 inverse agonist project, cell-based, luminescence, high throughput (AID 651614);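 note: cells cotransfected with StAR promoter reporter and SF1 expression vector; 0% = vehicle on cells with receptor and 100% = vehicle on cells lacking receptor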
- protocol-conditions: cell-based SF1 luciferase reporter, at 3.6 µM, active compounds read high
Activity calls are given as the source filed them. Rule as the data show it: active = inhibition above about 44%; inactive = the rest.
Each entry below carries its recorded inhibition.

Use the examples below as a reference point.
{"columns": ["molecule", "target-under-test", "quantity", "meas-value"],
 "data": [
  ["c1csc(CNc2ccc3c(c2)OCCO3)c1", "Steroidogenic factor 1 (Homo sapiens) (UniProt Q13285)", "inhibition", "-20.9% (inactive)"],
  ["Cc1ccc(NC(=O)CSc2nsc(SCC(=O)Nc3ccc(C)cc3C)c2C#N)c(C)c1", "Steroidogenic factor 1 (Homo sapiens) (UniProt Q13285)", "inhibition", "34.5% (inactive)"],
  ["Cc1cc(O)c(/C=N/Nc2cccc(Cl)c2)c(=O)o1", "Steroidogenic factor 1 (Homo sapiens) (UniProt Q13285)", "inhibition", "24.6% (inactive)"],
  ["CCCCn1c(NS(=O)(=O)c2ccccc2)c(S(=O)(=O)c2ccc(C)cc2)c2nc3ccccc3nc21", "Steroidogenic factor 1 (Homo sapiens) (UniProt Q13285)", "inhibition", "24.9% (inactive)"],
  ["Cc1ccc(C(=O)N/N=C\\c2ccc([N+](=O)[O-])o2)cn1", "Steroidogenic factor 1 (Homo sapiens) (UniProt Q13285)", "inhibition", "57% (active)"]
]}

Input: I'd like to know its inhibition. The molecule in question is "Cc1cc2ncn(/N=C/c3ccc([N+](=O)[O-])s3)c2cc1C"
Output: 58.6% (active)

Input: I'd like to know its inhibition. The molecule in question is CCCCC(=O)NC(c1ccccc1Cl)c1ccc2cccnc2c1O (stereo not given)
Output: 80.8% (active)

Input: I'd like to know its inhibition. The molecule in question is CCCC(=O)NC(c1ccc(N(C)C)cc1)c1ccc2cccnc2c1O (stereo not given)
Output: 91.3% (active)

Input: I'd like to know its inhibition. The molecule in question is "S=C(NN=C(c1ccccc1)c1ccccn1)N(Cc1ccccn1)Cc1ccccn1"
Output: 96.4% (active)

Input: I'd like to know its inhibition. The molecule in question is COc1cc(C2CC(=O)c3c([nH]c(C(=O)OCCOC(C)C)c3C)C2)cc(OC)c1OC (stereo not given)
Output: 56.8% (active)
